- Study System: T1, HLA-A*02 (human)
- T1 construct: Peptide-receptive MHC monomer made by UV cleavage of a UV-sensitive ligand and captured on streptavidin plates; also called HLA-A*02 MHC class I molecule; peptide-receptive MHC
- Test Name: UV-exchange ELISA (anti-b2m); yield <20%
Kindly state peptide exchange yield for each of the entries shown.

Enquiry: Tell me the measured peptide exchange yield of GAVAEEVLSSI , please.
Return: < 20%

Enquiry: Tell me the measured peptide exchange yield of TLSSERDFAL , please.
Return: < 20%

Enquiry: Tell me the measured peptide exchange yield of SSLEPQIQPV , please.
Return: < 20%

Enquiry: Tell me the measured peptide exchange yield of AQTVVVIKA , please.
Return: < 20%
